# systemUnderTest: Integrin alpha-4/beta-7 (Homo sapiens, UniProt P13612+P26010)
# Sequence (P13612 whole entry): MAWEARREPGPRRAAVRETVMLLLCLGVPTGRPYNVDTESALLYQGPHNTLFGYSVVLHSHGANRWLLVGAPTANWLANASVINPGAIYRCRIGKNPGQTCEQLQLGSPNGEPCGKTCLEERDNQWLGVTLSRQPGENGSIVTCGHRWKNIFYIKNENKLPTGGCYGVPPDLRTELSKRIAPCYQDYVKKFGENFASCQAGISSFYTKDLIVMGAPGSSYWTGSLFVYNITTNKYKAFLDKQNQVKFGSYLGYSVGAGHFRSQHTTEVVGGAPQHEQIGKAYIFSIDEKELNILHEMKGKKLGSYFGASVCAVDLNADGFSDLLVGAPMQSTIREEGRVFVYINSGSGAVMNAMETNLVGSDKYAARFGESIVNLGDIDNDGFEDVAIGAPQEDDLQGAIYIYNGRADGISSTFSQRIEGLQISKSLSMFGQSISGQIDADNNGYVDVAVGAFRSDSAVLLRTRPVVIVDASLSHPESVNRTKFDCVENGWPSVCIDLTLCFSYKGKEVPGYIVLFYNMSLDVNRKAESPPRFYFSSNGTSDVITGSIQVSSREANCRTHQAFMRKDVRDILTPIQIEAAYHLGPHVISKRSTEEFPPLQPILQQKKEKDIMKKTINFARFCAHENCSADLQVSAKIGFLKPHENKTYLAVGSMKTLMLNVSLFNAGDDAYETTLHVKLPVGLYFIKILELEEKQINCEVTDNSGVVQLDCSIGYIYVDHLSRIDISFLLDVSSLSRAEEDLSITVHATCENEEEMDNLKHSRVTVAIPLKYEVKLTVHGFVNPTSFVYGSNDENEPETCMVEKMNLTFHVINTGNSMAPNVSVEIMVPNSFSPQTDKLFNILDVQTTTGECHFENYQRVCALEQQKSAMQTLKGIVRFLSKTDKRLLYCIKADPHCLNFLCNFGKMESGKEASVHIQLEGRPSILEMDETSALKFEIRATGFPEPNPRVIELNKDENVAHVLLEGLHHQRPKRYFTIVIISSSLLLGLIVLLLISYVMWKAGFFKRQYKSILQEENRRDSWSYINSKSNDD
# Sequence (P26010 whole entry): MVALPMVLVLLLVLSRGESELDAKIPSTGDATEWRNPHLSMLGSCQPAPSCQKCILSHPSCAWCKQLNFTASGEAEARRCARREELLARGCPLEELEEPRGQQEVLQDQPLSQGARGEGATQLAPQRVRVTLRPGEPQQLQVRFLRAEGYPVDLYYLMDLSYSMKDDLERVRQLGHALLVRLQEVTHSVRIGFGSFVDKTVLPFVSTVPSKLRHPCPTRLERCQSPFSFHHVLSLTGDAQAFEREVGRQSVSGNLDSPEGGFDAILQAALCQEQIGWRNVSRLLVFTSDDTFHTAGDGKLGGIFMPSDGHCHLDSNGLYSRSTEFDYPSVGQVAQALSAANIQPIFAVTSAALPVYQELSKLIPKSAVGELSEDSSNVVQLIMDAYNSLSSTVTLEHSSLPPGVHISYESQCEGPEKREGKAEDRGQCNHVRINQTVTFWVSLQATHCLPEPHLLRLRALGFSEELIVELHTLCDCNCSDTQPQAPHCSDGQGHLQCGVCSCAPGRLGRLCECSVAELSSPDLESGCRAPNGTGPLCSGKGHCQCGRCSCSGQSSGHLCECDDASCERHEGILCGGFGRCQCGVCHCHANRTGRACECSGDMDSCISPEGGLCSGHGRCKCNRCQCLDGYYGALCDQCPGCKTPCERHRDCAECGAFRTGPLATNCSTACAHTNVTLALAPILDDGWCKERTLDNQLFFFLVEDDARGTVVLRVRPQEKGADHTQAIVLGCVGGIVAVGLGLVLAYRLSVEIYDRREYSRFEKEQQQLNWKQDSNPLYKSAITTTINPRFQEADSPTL
# procedureText: Inhibition of [125I]-VCAM-Ig binding to human integrin alpha4-beta7 receptor in RPMI-8866 cells
# Assay type: cell-based
pIC50: −log10 of the molar value.
valueKind: pIC50

Request: Specify the recorded pIC50 for COc1ccccc1-c1ccc(C[C@H](NC(=O)C2(S(=O)(=O)c3cccc(C)c3)CCCCC2)C(=O)O)cc1 , system: Integrin alpha-4/beta-7 (Homo sapiens, UniProt P13612+P26010).
Result: 7.11

Request: Specify the recorded pIC50 for COc1ccccc1-c1ccc(C[C@H](NC(=O)C2(S(=O)(=O)C3CCCCC3)CCCC2)C(=O)O)cc1 , system: Integrin alpha-4/beta-7 (Homo sapiens, UniProt P13612+P26010).
Result: 7.28

[P] COc1ccccc1-c1ccc(C[C@H](NC(=O)C2(S(=O)(=O)C(C)(C)C)CCCC2)C(=O)O)cc1
[Q] COc1ccccc1-c1ccc(C[C@H](NC(=O)C2(S(=O)(=O)c3ccccc3)CCCC2)C(=O)O)cc1
Request: // max by pIC50 over [ P , Q ] Answer by stating the label of the chosen item.
Result: P
(P: 7.72, Q: 7.08)
